- MEASURED TARGET: Thrombin and coagulation factor VII (Homo sapiens) (UniProt P00734+P08709)
- ASSAY COMMENT: Selectivity for coagulation factor VIIa over thrombin IIa.
- Type: protein assay
# binarize Selectivity: threshold 20 inclusive, high side 1, low side 0

Sample answers from the record:
N=C(N)NCCC[C@H](NC(=O)[C@H](Cc1cccc(Cl)c1)NC(=O)[C@@H](Cc1ccccc1)NS(=O)(=O)Cc1ccccc1)C(=O)c1nccs1 | 1
Cc1ccc(C[C@H](NC(=O)[C@@H](Cc2ccccc2)NS(=O)(=O)Cc2ccccc2)C(=O)N[C@@H](CCCN=C(N)N)C(=O)c2nccs2)cc1 | 0
N=C(N)NCCC[C@H](NC(=O)[C@H](Cc1cn(Cc2ccccc2)cn1)NC(=O)[C@@H](Cc1ccccc1)NS(=O)(=O)Cc1ccccc1)C(=O)c1nccs1 | 0
N=C(N)NCCC[C@H](NC(=O)[C@H](COCc1ccccc1)NC(=O)[C@@H](Cc1ccccc1)NS(=O)(=O)Cc1ccccc1)C(=O)c1nccs1 | 0
N#CC[C@H](NC(=O)[C@@H](Cc1ccccc1)NS(=O)(=O)Cc1ccccc1)C(=O)N[C@@H](CCCNC(=N)N)C(=O)c1nccs1 | 1
N=C(N)NCCC[C@H](NC(=O)[C@H](CC(=O)OC1CCCCC1)NC(=O)[C@@H](Cc1ccccc1)NS(=O)(=O)Cc1ccccc1)C(=O)c1nccs1 | 0

Determine whether this molecule has Selectivity no lower than 20: CC(C)(C)C[C@H](NC(=O)[C@@H](Cc1ccccc1)NS(=O)(=O)Cc1ccccc1)C(=O)N[C@@H](CCCN=C(N)N)C(=O)c1nccs1 0
